Data provenance is patent US20260053834A1.

EXPERIMENTAL TARGET: AKT1 E17K (Homo sapiens, UniProt P31749, E17K)
Sequence (P31749 whole entry E17K): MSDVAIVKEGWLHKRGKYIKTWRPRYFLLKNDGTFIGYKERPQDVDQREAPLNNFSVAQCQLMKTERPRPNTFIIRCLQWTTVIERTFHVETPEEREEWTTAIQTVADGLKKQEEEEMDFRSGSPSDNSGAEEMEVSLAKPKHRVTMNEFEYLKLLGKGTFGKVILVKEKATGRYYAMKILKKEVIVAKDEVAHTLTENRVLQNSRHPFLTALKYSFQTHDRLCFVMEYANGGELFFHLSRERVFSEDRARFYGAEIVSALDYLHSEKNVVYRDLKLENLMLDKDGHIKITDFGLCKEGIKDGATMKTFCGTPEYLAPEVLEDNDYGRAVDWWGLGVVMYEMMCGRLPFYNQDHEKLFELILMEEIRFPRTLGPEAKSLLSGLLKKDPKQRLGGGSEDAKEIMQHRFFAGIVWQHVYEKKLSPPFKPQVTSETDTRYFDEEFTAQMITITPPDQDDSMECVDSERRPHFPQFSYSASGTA
EXPERIMENTAL DETAILS: Live cell target engagement by NanoBRET competitive probe displacement, AKT1 E17K
CONDITION SET: transfected HEK293 cells, 2 h at 37° C., read-out: AKT1 E17K IC50: GeoMean IC50
Exercise: state measured IC50 for each of the compounds provided.

Nc1ncccc1-c1nc2ccc(-c3ccncc3)nc2n1-c1ccc2c(c1)CC[C@@H]2NC(=O)c1ccc(O)c(C=O)c1; 10 to 100 nM
Nc1ncccc1-c1nc2ccc(-n3ccc(F)n3)nc2n1-c1ccc2c(c1)CC[C@@H]2NC(=O)c1ccc(O)c(C=O)c1; 10 to 100 nM
Nc1ncccc1-c1nc2ccc(-n3nccn3)nc2n1-c1ccc2c(c1)CC[C@@H]2NC(=O)c1cc(C=O)c(O)c(F)c1F; 10 to 100 nM
Nc1ncccc1-c1nc2ccc(-n3ccnn3)nc2n1-c1ccc2c(c1)CC[C@@H]2NC(=O)c1ccc(O)c(C=O)c1; 10 to 100 nM
Nc1ncccc1-c1nc2ccc(-c3ccccc3)nc2n1-c1ccc2c(c1)CC[C@@H]2NC(=O)c1cc(Cl)c(O)c(C=O)c1; 10 to 100 nM

For every record below, what is its IC50?
1. Nc1ncccc1-c1nc2c(Cl)cc(-n3cccn3)nc2n1-c1ccc2c(c1)CC[C@@H]2NC(=O)c1ccc(O)c(C=O)c1
2. Nc1ncccc1-c1nc2ccc(-c3ccccc3)nc2n1-c1ccc2c(c1)CC[C@H]2NCCc1ccc(C=O)c(O)c1

(A)
1: 10 to 100 nM; 2: 10 to 100 nM

// for each compound in input: emit IC50
1. CS(=O)(=O)Nc1cc(F)c(C(=O)N[C@H]2CCc3cc(-n4c(-c5cccnc5N)nc5ccc(-n6cccn6)nc54)ccc32)cc1C=O
2. COCc1cc(-n2cccn2)nc2c1nc(-c1cccnc1N)n2-c1ccc2c(c1)CC[C@@H]2NC(=O)c1ccc(O)c(C=O)c1
3. Nc1ncccc1-c1nc2ccc(-n3cccn3)nc2n1-c1ccc2c(c1)CC[C@@H]2NC(=O)c1cc(C=O)c(O)cc1-n1cccn1
4. Nc1ncccc1-c1nc2ccc(-c3ccccc3)nc2n1-c1ccc2c(c1)CC[C@@H]2NC(=O)c1cc(C=O)c(O)c(F)c1F

(A)
1. ≥ 2000 nM
2. 10 to 100 nM
3. 10 to 100 nM
4. 10 to 100 nM

Below are some compounds; for each one, tell me its IC50.
1. Cn1c(=O)[nH]c2c(C=O)cc(C(=O)N[C@H]3CCc4cc(-n5c(-c6cccnc6N)nc6ccc(-n7cccn7)nc65)ccc43)cc21
2. Nc1ncccc1-c1nc2c(F)cc(-n3cccn3)nc2n1-c1ccc2c(c1)CC[C@@H]2NC(=O)c1ccc(O)c(C=O)c1
3. Nc1ncccc1-c1nc2ccc(-c3ccccc3)nc2n1-c1ccc2c(c1)CCC2C(=O)NCc1ccc(C=O)c(O)c1 (centres unmarked)

(A)
1: < 10 nM; 2: 10 to 100 nM; 3: < 10 nM

Quick request: IC50 for each listed item, please.
1. Nc1ncccc1-c1nc2ccc(-c3ccccc3)nc2n1-c1ccc2c(c1)CC[C@@H]2NC(=O)c1cc(C=O)c(O)cn1
2. Nc1ncccc1-c1nc2ccc(-n3ncc4cccnc43)nc2n1-c1ccc2c(c1)CC[C@@H]2NC(=O)c1cc(C=O)c(O)c(F)c1F

(A)
1. ≥ 2000 nM
2. 10 to 100 nM

Fill in IC50 for each of the 6 compounds listed.
1. Nc1ncccc1-c1nc2ccc(-n3ccc(C(F)F)n3)nc2n1-c1ccc2c(c1)CC[C@@H]2NC(=O)c1ccc(O)c(C=O)c1
2. CS(=O)(=O)Nc1ccc(C(=O)N[C@H]2CCc3cc(-n4c(-c5cccnc5N)nc5ccc(-n6cccn6)nc54)ccc32)cc1C=O
3. Nc1ncccc1-c1nc2ccc(-n3cccn3)nc2n1-c1ccc2c(c1)CC[C@@H]2NC(=O)c1cc(C=O)c(O)c2scnc12
4. Cc1cnc(-c2ccc3nc(-c4cccnc4N)n(-c4ccc5c(c4)CC[C@@H]5NC(=O)c4ccc(O)c(C=O)c4)c3n2)o1
5. Cn1cc(-c2ccc3nc(-c4cccnc4N)n(-c4ccc5c(c4)CC[C@@H]5NC(=O)c4ccc(O)c(C=O)c4)c3n2)nn1
6. CN(C)C(=O)Nc1ccc(C(=O)N[C@H]2CCc3cc(-n4c(-c5cccnc5N)nc5ccc(-c6ccccc6)nc54)ccc32)cc1C=O

(A)
1: 10 to 100 nM; 2: 10 to 100 nM; 3: 10 to 100 nM; 4: 10 to 100 nM; 5: 10 to 100 nM; 6: < 10 nM

# return IC50 for each item in the list
1. Nc1ncccc1-c1nc2ccc(-c3ccccc3)nc2n1-c1ccc2c(c1)CC[C@@H]2NC(=O)c1ccc(C=O)c(O)c1F
2. COc1cc(F)c(C(=O)N[C@H]2CCc3cc(-n4c(-c5cccnc5N)nc5ccc(-n6cccn6)nc54)ccc32)cc1C=O
3. Nc1ncccc1-c1nc2ccc(-n3cccn3)nc2n1-c1ccc2c(c1)CC[C@@H]2NC(=O)c1cc(C=O)c(O)c2nccn12
4. Cc1cc(C)n(-c2ccc3nc(-c4cccnc4N)n(-c4ccc5c(c4)CC[C@@H]5NC(=O)c4ccc(O)c(C=O)c4)c3n2)n1

(A)
["10 to 100 nM", "10 to 100 nM", "≥ 2000 nM", "10 to 100 nM"]
